- Tested on: Plasmodium berghei
- Procedure Summary: Luciferase/luciferin-expressing antifolate-resistant parasites were used to infect a culture of HepG2 cells that were pre-incubated with compounds. Infected hepatocytes emit light due to the luciferase reaction. Assay results are presented as the percent inhibition of light emission compared to control. […]
- Assay type: functional
- Study Conditions: sporozoite, read-out: LUCIFERASE INFECTION ASSAY - IC50
pIC50: −log10 of the molar value.
For each entry below, report its pIC50 value.

Problem: Report value only: pIC50, Plasmodium berghei, Cc1ccc(C)c(OCCCN2C(=O)NC(Cc3c[nH]c4ccccc34)C2=O)c1 (stereo unspecified)
Result: < 5.00

Problem: Report value only: pIC50, Plasmodium berghei, "Cc1noc2nc(C(C)C)cc(C(=O)Nc3nc4ccccc4[nH]3)c12"
Result: < 5.00

Problem: Report value only: pIC50, Plasmodium berghei, "COc1cc(-c2cnc3sc(NCc4cccs4)nn23)ccc1O"
Result: < 5.04

Problem: Report value only: pIC50, Plasmodium berghei, CC(C)C1CCC(C)C(OCC(O)CN2CCN(Cc3ccc4c(c3)OCO4)CC2)C1 (stereo unspecified)
Result: < 5.00

Problem: Report value only: pIC50, Plasmodium berghei, "COc1cc(OC)cc(C(=O)NNC(=O)CCC(=O)c2ccc(Cl)s2)c1"
Result: < 5.00

Problem: Report value only: pIC50, Plasmodium berghei, "CN(C)c1ccc(-c2nnc3ccccn23)cc1"
Result: 5.18

Problem: Report value only: pIC50, Plasmodium berghei, "CCCCNC(=O)c1c(NC(=O)c2c(F)ccc(F)c2F)nc2ccccn12"
Result: < 5.07

Problem: Report value only: pIC50, Plasmodium berghei, "CCCCn1c(N)c(N(CC(C)C)C(=O)c2cc(Br)c(Br)s2)c(=O)[nH]c1=O"
Result: 5.08

Problem: Report value only: pIC50, Plasmodium berghei, CCOc1ccccc1NC(=O)C(c1ccccc1)N1CCC(n2c(=O)[nH]c3ccccc32)CC1 (stereo unspecified)
Result: 5.28

Problem: Report value only: pIC50, Plasmodium berghei, O=C(CSc1ccc(S(=O)(=O)N2CCOCC2)cn1)NC(c1ccccc1)c1cccs1 (stereo unspecified)
Result: < 5.00

Problem: Report value only: pIC50, Plasmodium berghei, "O=S(=O)(Nc1cccc(C(F)(F)F)c1)c1ccc(S(=O)(=O)c2ncc(C(F)(F)F)cc2Cl)s1"
Result: < 5.22

Problem: Report value only: pIC50, Plasmodium berghei, "CCCN1CCc2nc(NCc3ccc(Oc4ccccc4)cc3)ncc2C1"
Result: < 5.06

Problem: Report value only: pIC50, Plasmodium berghei, CCC(C)c1ccccc1OS(=O)(=O)c1ccc2c(c1)NC(=O)CO2 (stereo unspecified)
Result: < 5.00

Problem: Report value only: pIC50, Plasmodium berghei, "O=C(Cc1csc(-c2ccccc2)n1)Nc1nc2c(s1)CCCC2"
Result: < 5.00

Problem: Report value only: pIC50, Plasmodium berghei, "Cc1cc(OCC(=O)N(C)Cc2nc3ccsc3c(=O)[nH]2)ccc1C(C)C"
Result: < 5.00

Problem: Report value only: pIC50, Plasmodium berghei, "O=C(NCCSCc1csc2ccc(Cl)cc12)Nc1ccc(Cl)cc1"
Result: < 5.10

Problem: Report value only: pIC50, Plasmodium berghei, "O=c1[nH]c2ccc(-c3csc(-c4ccsc4)n3)cc2[nH]1"
Result: 5.37

Problem: Report value only: pIC50, Plasmodium berghei, "Cc1cc(C)n2nc(C(=O)OCC(=O)N(C)Cc3ccsc3)nc2n1"
Result: < 5.00

Problem: Report value only: pIC50, Plasmodium berghei, COc1cccc(NC(=O)c2csc(C(O)c3cccc(C(F)(F)F)c3)n2)c1 (stereo unspecified)
Result: < 5.00

Problem: Report value only: pIC50, Plasmodium berghei, O=C1CC(c2cccc3ccccc23)c2c([nH]c(-c3ccccc3)nc2=O)N1 (stereo unspecified)
Result: < 5.05

Problem: Report value only: pIC50, Plasmodium berghei, "Cn1cc(/C=C/C(=O)Nc2nc(-c3ccc4c(c3)OCCO4)cs2)cn1"
Result: 5.00
